Molecular target: USP5 (UniProt P45974)
Sequence (P45974 whole entry, the tested form may be a part): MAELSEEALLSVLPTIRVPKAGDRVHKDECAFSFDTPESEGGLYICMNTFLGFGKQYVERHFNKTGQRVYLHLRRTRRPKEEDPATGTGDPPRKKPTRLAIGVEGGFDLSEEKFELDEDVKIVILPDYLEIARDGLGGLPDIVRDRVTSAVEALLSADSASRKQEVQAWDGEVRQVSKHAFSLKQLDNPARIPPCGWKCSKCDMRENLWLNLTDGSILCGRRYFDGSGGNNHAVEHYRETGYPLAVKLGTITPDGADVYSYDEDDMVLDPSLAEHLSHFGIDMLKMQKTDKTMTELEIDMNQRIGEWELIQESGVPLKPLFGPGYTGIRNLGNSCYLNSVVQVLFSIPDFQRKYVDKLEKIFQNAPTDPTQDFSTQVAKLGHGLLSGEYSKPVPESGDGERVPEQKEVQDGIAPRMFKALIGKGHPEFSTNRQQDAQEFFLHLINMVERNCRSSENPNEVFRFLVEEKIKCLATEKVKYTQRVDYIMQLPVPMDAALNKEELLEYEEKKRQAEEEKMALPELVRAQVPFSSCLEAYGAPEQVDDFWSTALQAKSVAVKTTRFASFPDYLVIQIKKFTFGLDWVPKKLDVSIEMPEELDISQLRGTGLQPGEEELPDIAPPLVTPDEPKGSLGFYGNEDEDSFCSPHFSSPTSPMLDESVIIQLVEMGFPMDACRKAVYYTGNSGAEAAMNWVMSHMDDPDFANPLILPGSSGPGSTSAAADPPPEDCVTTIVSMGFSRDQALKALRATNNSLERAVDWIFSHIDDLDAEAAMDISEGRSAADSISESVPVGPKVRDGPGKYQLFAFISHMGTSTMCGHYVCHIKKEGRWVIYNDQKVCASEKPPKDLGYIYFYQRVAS
Assay: log2 ratio of Biotin-Ahx-Ub-VS probe labelling (fragment/DMSO); higher = less target engagement (more negative = stronger competition), active = hit call of the paper (q ≤ 0.05, log2 ratio ≤ -1)
Conditions: compound concentration: 200 uM; treatment time: 3 h
measure: log2 ratio of Biotin-Ahx-Ub-VS probe labelling
Numbers only.

Give measured log2 ratio of Biotin-Ahx-Ub-VS probe labelling for every item shown.
1. O=C(CCl)N1CCC(c2ccn[nH]2)C1 (centres undefined)
2. CCN1C(=O)C2CN(C(=O)CCl)CCN2C1=O (centres undefined)
3. CC(c1ccccc1)N(C)C(=O)CCl (centres undefined)
4. O=C(CCl)NCCc1ccc(F)cc1
5. O=C(CCl)N1CCc2ccccc2C(O)C1 (centres undefined)
6. CNC(=O)Cn1cc(NC(=O)CCl)cn1

Return:
[-0.0093, 0.0692, 0.359, 0.066, -0.103, -0.241]

Give measured log2 ratio of Biotin-Ahx-Ub-VS probe labelling for every item shown.
1. O=C(CCl)N1CCC(OCc2ccccc2F)CC1
2. O=C(CCl)NC1CCN(C(=O)C2CCCCC2)CC1
3. O=C(CCl)N1CCC(c2nc3ccccc3o2)CC1
4. CCCn1nccc1NC(=O)CCl
5. COCC[C@@H](NC(=O)CCl)c1ccccc1
6. O=C(CCl)N[C@H]1CCS(=O)(=O)c2ccccc21

Return:
1. 0.445
2. -0.157
3. 0.186
4. -0.757
5. 0.0242
6. -0.472

Give measured log2 ratio of Biotin-Ahx-Ub-VS probe labelling for every item shown.
1. CC(O)CC1CCN(C(=O)CCl)CC1 (centres undefined)
2. Cc1conc1C1CN(C(=O)CCl)C1

Return:
-0.447
-0.555

----------
Kindly state log2 ratio of Biotin-Ahx-Ub-VS probe labelling for each of the entries shown.
Biological target: ATXN3 (UniProt P54252)
Sequence (P54252 whole entry, the tested form may be a part): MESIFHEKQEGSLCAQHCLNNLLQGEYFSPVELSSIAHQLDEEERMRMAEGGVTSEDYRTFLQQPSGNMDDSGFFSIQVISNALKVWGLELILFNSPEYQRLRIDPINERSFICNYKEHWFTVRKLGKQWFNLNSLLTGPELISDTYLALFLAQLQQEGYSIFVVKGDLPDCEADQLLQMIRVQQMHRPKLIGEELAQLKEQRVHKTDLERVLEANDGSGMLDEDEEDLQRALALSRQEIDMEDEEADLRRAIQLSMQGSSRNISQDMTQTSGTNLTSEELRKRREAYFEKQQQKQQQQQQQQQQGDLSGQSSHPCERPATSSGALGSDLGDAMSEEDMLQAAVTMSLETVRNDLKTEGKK
Assay: log2 ratio of Biotin-Ahx-Ub-VS probe labelling (fragment/DMSO); higher = less target engagement (more negative = stronger competition), active = hit call of the paper (q ≤ 0.05, log2 ratio ≤ -1)
Conditions: compound concentration: 200 uM; treatment time: 3 h
Give bare numbers.

{"molecule": "Cl.Cn1nc2c(c1CNC(=O)CCl)CCCC2", "target-of-assay": "ATXN3 (UniProt P54252)", "number": -0.903}
{"molecule": "Cc1cccc2nc(CCNC(=O)CCl)cn12.Cl", "target-of-assay": "ATXN3 (UniProt P54252)", "number": -0.436}
{"molecule": "O=C(CCl)N1CCC(C(=O)N2CCCCCC2)CC1", "target-of-assay": "ATXN3 (UniProt P54252)", "number": -0.407}
{"molecule": "Cc1noc(N2CCN(C(=O)CCl)CC2)n1.Cl", "target-of-assay": "ATXN3 (UniProt P54252)", "number": -0.811}
{"molecule": "O=C(CCl)NCc1ccc(Cl)cc1", "target-of-assay": "ATXN3 (UniProt P54252)", "number": -0.168}
{"molecule": "Cc1cc(CC(C)NC(=O)CCl)n[nH]1 (centres undefined)", "target-of-assay": "ATXN3 (UniProt P54252)", "number": -0.115}
{"molecule": "O=C(CN1CCN(C(=O)CCl)CC1)Nc1cccc(F)c1", "target-of-assay": "ATXN3 (UniProt P54252)", "number": -0.412}
{"molecule": "COc1ccccc1C(C)NC(=O)CCl (centres undefined)", "target-of-assay": "ATXN3 (UniProt P54252)", "number": -0.0967}

Give measured log2 ratio of Biotin-Ahx-Ub-VS probe labelling for every item shown.
1. O=C(CCl)N1CCN2C(=O)CCC2C1 (centres undefined)
2. Cl.O=C(CCl)NCCN1CCc2ccccc21
3. CCC1c2ccsc2CCN1C(=O)CCl (centres undefined)
4. CNC(=O)Cn1cc(NC(=O)CCl)cn1
5. Cc1ccc(-c2nnc(C)[nH]2)c(NC(=O)CCl)c1
6. Cc1ccc2nnc(CNC(=O)CCl)n2c1
7. Cc1ccccc1C1(CNC(=O)CCl)CCOCC1

Return:
[-0.237, -0.887, -0.424, -0.517, -0.0255, -0.0879, -0.273]

Give measured log2 ratio of Biotin-Ahx-Ub-VS probe labelling for every item shown.
1. Cc1ccccc1CN(C)C(=O)CCl
2. O=C(CCl)Nc1ccc(N2CCCC2=O)cc1
3. O=C(CCl)N[C@H]1CC[C@@H](CO)CC1
4. O=C(CCl)N1CCCCC12CCOCC2
5. O=C(CCl)NCC(=O)N1CCCC1
6. O=C(CCl)NCc1cccc(F)c1
7. O=C(CCl)N(C1CCCC1)C1CCS(=O)(=O)C1 (centres undefined)
8. O=C(CCl)NCc1cccc(N2CCCC2=O)c1

Return:
-1.13
0.0787
-0.868
-0.355
-0.179
-0.297
-0.109
-0.37

Give measured log2 ratio of Biotin-Ahx-Ub-VS probe labelling for every item shown.
1. CC1Cc2ccccc2N1C(=O)CCl (centres undefined)
2. NC(=O)C(Cc1ccccc1)NC(=O)CCl (centres undefined)
3. Cc1ccc(CN(C)C(=O)CCl)o1
4. O=C(CCl)NCc1ccc(N2CCOCC2)nc1
5. CC1CCc2onc(CNC(=O)CCl)c2C1 (centres undefined)

Return:
1. -0.989
2. -0.279
3. -0.103
4. -0.193
5. 0.065

Enquiry: Find the recorded log2 ratio of Biotin-Ahx-Ub-VS probe labelling belonging to Cn1cc(CN(Cc2ccc(Cl)cc2)C(=O)CCl)cn1 and report it.
Return: -0.833

----------
Kindly state log2 ratio of Biotin-Ahx-Ub-VS probe labelling for each of the entries shown.
Target: ALG13 (UniProt Q9NP73)
Sequence (whole entry): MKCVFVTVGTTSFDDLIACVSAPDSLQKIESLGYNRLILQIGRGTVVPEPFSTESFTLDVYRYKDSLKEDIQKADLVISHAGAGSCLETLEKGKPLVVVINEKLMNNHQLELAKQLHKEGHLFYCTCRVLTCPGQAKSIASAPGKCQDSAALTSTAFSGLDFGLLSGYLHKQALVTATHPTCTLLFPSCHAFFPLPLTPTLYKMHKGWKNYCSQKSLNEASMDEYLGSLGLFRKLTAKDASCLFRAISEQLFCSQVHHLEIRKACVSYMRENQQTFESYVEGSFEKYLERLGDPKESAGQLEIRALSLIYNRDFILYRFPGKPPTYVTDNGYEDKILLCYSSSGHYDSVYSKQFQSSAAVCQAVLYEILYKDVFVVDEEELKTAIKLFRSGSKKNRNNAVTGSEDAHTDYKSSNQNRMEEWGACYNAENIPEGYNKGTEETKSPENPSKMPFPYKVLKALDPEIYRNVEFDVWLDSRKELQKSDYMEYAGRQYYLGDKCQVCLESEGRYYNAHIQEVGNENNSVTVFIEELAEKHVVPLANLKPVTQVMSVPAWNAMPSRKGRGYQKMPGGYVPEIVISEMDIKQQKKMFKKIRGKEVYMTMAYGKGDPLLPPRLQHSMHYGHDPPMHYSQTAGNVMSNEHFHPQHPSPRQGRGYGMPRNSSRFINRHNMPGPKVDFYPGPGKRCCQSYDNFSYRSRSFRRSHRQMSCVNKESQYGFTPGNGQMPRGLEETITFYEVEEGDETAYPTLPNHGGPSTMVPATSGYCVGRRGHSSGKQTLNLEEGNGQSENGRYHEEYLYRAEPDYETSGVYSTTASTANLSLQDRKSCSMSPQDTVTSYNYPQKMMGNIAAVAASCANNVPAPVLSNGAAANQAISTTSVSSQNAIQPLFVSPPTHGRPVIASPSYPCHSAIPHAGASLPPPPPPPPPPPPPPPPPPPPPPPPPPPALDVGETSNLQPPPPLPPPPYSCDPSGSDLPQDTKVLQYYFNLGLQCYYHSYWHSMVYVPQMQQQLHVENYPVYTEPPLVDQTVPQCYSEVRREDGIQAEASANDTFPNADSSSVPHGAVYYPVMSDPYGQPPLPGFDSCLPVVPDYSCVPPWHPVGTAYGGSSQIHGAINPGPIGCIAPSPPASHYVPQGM
Assay: log2 ratio of Biotin-Ahx-Ub-VS probe labelling (fragment/DMSO); higher = less target engagement (more negative = stronger competition), active = hit call of the paper (q ≤ 0.05, log2 ratio ≤ -1)
Conditions: compound concentration: 200 uM; treatment time: 3 h
Give bare numbers.

Reference set (5 entries):
{"molecule": "O=C(CCl)N1CCc2ccccc2C(O)C1 (configuration not stated)", "number": 0.0799}
{"molecule": "CN(C)C(=O)c1ccc(NC(=O)CCl)cc1", "number": -0.115}
{"molecule": "Cc1ccn2cc(CNC(=O)CCl)nc2c1.Cl", "number": 0.193}
{"molecule": "CN1C(=O)c2ccc(NC(=O)CCl)cc2C1=O", "number": 0.35}
{"molecule": "Cc1ccc2nnc(CNC(=O)CCl)n2c1", "number": 0.205}

Give measured log2 ratio of Biotin-Ahx-Ub-VS probe labelling for every item shown.
1. NS(=O)(=O)c1ccc(Cl)c(NC(=O)CCl)c1
2. O=C(CCl)N(C1=CCCCC1)C1CC1

Return:
[-0.591, 0.101]
